# Test method notes: AUC (0 to 24 hrs) in mouse
# Assay type: ADME, organism-based
# Parameters: time < 24 hr
# Condition description: plasma
Readout label: AUC(0-t) at 24 h (ng·h/mL)

CCc1c(CCCC(=O)O)cccc1-c1nnc(-c2ccc(OC(C)C)c(C#N)c2)s1: 5940
CCc1c(CCCC(=O)O)cccc1-c1nsc(-c2ccc(OC(C)C)c(C#N)c2)n1: 2600
CCc1c(CCCC(=O)O)cccc1-c1cnc(-c2ccc(OC(C)C)c(C#N)c2)s1: 8340
CCc1c(CCCC(=O)O)cccc1-c1cnc(-c2ccc(OC(C)C)c(C#N)c2)nc1: 11500
